Biological target: Serine/threonine-protein kinase Chk2 (Homo sapiens);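 note: reported value is the mean inhibition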
Settings: at 1 µM
ATTRIBUTE MEASURED: inhibition (%)
Use % as the unit, but write only the number.

Examples with their reported inhibition follow.
smiles_structure=COc1cc2c(cc1Nc1nc(Nc3ccsc3C(N)=O)c3cc[nH]c3n1)N(C(=O)CN(C)C)CCC2 quantitative_result=11.8
smiles_structure=CCn1c(-c2nonc2N)nc2c(C#CCN)ncc(OCCCN)c21 quantitative_result=0.23
smiles_structure=Nc1nonc1-c1nc2cnccc2n1C1CCCCC1 quantitative_result=-1.47
smiles_structure=Cc1cc(-c2ccco2)cc(C)c1/C=C/c1cncc(-c2nn[nH]n2)c1 quantitative_result=-0.4

Param readout= inhibition; system= Serine/threonine-protein kinase Chk2 (Homo sapiens); entry= CCn1c(-c2nonc2N)nc2c(C#CC(C)(C)O)nc(O[C@@H](CN)c3ccccc3)cc21 ; returns value. 26.7
